# Tested on: rat erythrocytes
# procedure text: Hemolysis assay
# Type: cell-based
# setup conditions: pH 7.4
Square brackets hold non-standard residues; d marks the D form. Peptide text beside a SMILES is read from it. Gly(N(CH2)2(3-indolyl)) = O=C(O)CNCCc1c[nH]c2ccccc12; Nspe = C[C@H](NCC(=O)O)c1ccccc1; Nlys = NCCCCNCC(=O)O
measurement name: HC50

Ask | For C[C@@H](c1ccccc1)N(CC(=O)N(CCCCN)CC(=O)N(CCCCN)CC(=O)N(CCc1c[nH]c2ccccc12)CC(=O)N(CCc1c[nH]c2ccccc12)CC(N)=O)C(=O)CN(CCCCN)C(=O)CN(C(=O)CN(C(=O)CN(CCCCN)C(=O)CN(C(=O)CN(C(=O)CNCCCCN)[C@@H](C)c1ccccc1)[C@@H](C)c1ccccc1)[C@@H](C)c1ccccc1)[C@@H](C)c1ccccc1 [peptoid 28] (H-[Nlys][Nspe][Nspe][Nlys][Nspe][Nspe][Nlys][Nspe][Nlys][Nlys][Gly(N(CH2)2(3-indolyl))][Gly(N(CH2)2(3-indolyl))]-NH2) , what is its reported HC50?
Reply | > 100 µM

---

Some compounds, each annotated with its measured HC50.
# Tested on: rat erythrocytes
# procedure text: Hemolysis assay
# Format: cell-based
# setup conditions: pH 7.4
Square brackets hold non-standard residues; d marks the D form. Peptide text beside a SMILES is read from it. Gly(N(CH2)2(3-indolyl)) = O=C(O)CNCCc1c[nH]c2ccccc12; Nspe = C[C@H](NCC(=O)O)c1ccccc1; Nphe = O=C(O)CNCc1ccccc1; Nlys = NCCCCNCC(=O)O

Field: example entries. Status: answers known.
compound	experimental system	HC50
C[C@@H](c1ccccc1)N(CC(N)=O)C(=O)CN(CCCCN)C(=O)CN(C(=O)CN(CCCCN)C(=O)CN(CCCCN)C(=O)CN(C(=O)CN(C(=O)CN(CCCCN)C(=O)CN(C(=O)CN(C(=O)CN(CCCCN)C(=O)CN(C(=O)CNCCc1c[nH]c2ccccc12)[C@@H](C)c1ccccc1)[C@@H](C)c1ccccc1)[C@@H](C)c1ccccc1)[C@@H](C)c1ccccc1)[C@@H](C)c1ccccc1)[C@@H](C)c1ccccc1 [peptoid 62]	rat erythrocytes	> 100 µM
C[C@@H](c1ccccc1)N(CC(=O)N(CCc1c[nH]c2ccccc12)CC(N)=O)C(=O)CN(CCCCN)C(=O)CN(C(=O)CN(C(=O)CN(CCCCN)C(=O)CN(C(=O)CN(C(=O)CN(CCCCN)C(=O)CN(C(=O)CN(C(=O)CNCCCCN)[C@@H](C)c1ccccc1)[C@@H](C)c1ccccc1)[C@@H](C)c1ccccc1)[C@@H](C)c1ccccc1)[C@@H](C)c1ccccc1)[C@@H](C)c1ccccc1 [peptoid 7] (H-[Nlys][Nspe][Nspe][Nlys][Nspe][Nspe][Nlys][Nspe][Nspe][Nlys][Nspe][Gly(N(CH2)2(3-indolyl))]-NH2)	rat erythrocytes	23.8 µM
C[C@@H](c1ccccc1)N(CC(N)=O)C(=O)CN(C(=O)CN(CCCCN)C(=O)CN(C(=O)CN(C(=O)CN(CCCCN)C(=O)CN(C(=O)CN(C(=O)CN(CCCCN)C(=O)CN(CCc1c[nH]c2ccccc12)C(=O)CN(C(=O)CNCCCCN)[C@@H](C)c1ccccc1)[C@@H](C)c1ccccc1)[C@@H](C)c1ccccc1)[C@@H](C)c1ccccc1)[C@@H](C)c1ccccc1)[C@@H](C)c1ccccc1 [peptoid 10]	rat erythrocytes	17.0 µM
C[C@@H](c1ccccc1)N(CC(N)=O)C(=O)CN(C(=O)CN(CCCCN)C(=O)CN(C(=O)CN(C(=O)CN(CCCCN)C(=O)CN(C(=O)CN(C(=O)CN(CCCCN)C(=O)CN(C(=O)CN(C(=O)CN(CCCCN)C(=O)CN(Cc1ccccc1)C(=O)CNCc1ccccc1)[C@@H](C)c1ccccc1)[C@@H](C)c1ccccc1)[C@@H](C)c1ccccc1)[C@@H](C)c1ccccc1)[C@@H](C)c1ccccc1)[C@@H](C)c1ccccc1)[C@@H](C)c1ccccc1 [peptoid 43]	rat erythrocytes	6.4 µM
C[C@@H](c1ccccc1)N(CC(N)=O)C(=O)CN(CCCCN)C(=O)CN(C(=O)CN(C(=O)CN(CCCCN)C(=O)CN(C(=O)CN(CCCCN)C(=O)CN(CCCCN)C(=O)CN(C(=O)CN(C(=O)CN(CCCCN)C(=O)CN(C(=O)CNCCc1c[nH]c2ccccc12)[C@@H](C)c1ccccc1)[C@@H](C)c1ccccc1)[C@@H](C)c1ccccc1)[C@@H](C)c1ccccc1)[C@@H](C)c1ccccc1)[C@@H](C)c1ccccc1 [peptoid 63]	rat erythrocytes	> 100 µM
C[C@@H](c1ccccc1)N(CC(=O)N(CCCCN)CC(=O)N(CCc1c[nH]c2ccccc12)CC(=O)N(CCc1c[nH]c2ccccc12)CC(N)=O)C(=O)CN(CCCCN)C(=O)CN(CCCCN)C(=O)CN(Cc1ccccc1)C(=O)CN(Cc1ccccc1)C(=O)CN(CCCCN)C(=O)CN(C(=O)CN(C(=O)CNCCCCN)[C@@H](C)c1ccccc1)[C@@H](C)c1ccccc1 [peptoid 40] (H-[Nlys][Nspe][Nspe][Nlys][Nphe][Nphe][Nlys][Nlys][Nspe][Nlys][Gly(N(CH2)2(3-indolyl))][Gly(N(CH2)2(3-indolyl))]-NH2)	rat erythrocytes	> 100 µM
C[C@@H](c1ccccc1)N(CC(=O)N(CCCCN)CC(=O)N(CC(=O)N(CC(N)=O)Cc1ccccc1)Cc1ccccc1)C(=O)CN(CCCCN)C(=O)CN(CCCCN)C(=O)CN(C(=O)CN(C(=O)CN(CCCCN)C(=O)CN(C(=O)CN(C(=O)CNCCCCN)[C@@H](C)c1ccccc1)[C@@H](C)c1ccccc1)[C@@H](C)c1ccccc1)[C@@H](C)c1ccccc1 [peptoid 45] (H-[Nlys][Nspe][Nspe][Nlys][Nspe][Nspe][Nlys][Nlys][Nspe][Nlys][Nphe][Nphe]-NH2)	rat erythrocytes	> 100 µM
NCCCCNCC(=O)N(CC(=O)N(CC(=O)N(CCCCN)CC(=O)N(CC(=O)N(CC(=O)N(CCCCN)CC(=O)N(CC(=O)N(CC(=O)N(CCCCN)CC(=O)N(CC(=O)N(CC(N)=O)Cc1ccccc1)Cc1ccccc1)Cc1ccccc1)Cc1ccccc1)Cc1ccccc1)Cc1ccccc1)Cc1ccccc1)Cc1ccccc1 [peptoid 2, reference compound] (H-[Nlys][Nphe][Nphe][Nlys][Nphe][Nphe][Nlys][Nphe][Nphe][Nlys][Nphe][Nphe]-NH2)	rat erythrocytes	> 100.0 µM

Ask | For CC[C@H](C)[C@H](N)C(=O)N[C@@H](CC(C)C)C(=O)N[C@@H](CCCNC(=N)N)C(=O)N[C@@H](Cc1c[nH]c2ccccc12)C(=O)N1CCC[C@H]1C(=O)N[C@@H](Cc1c[nH]c2ccccc12)C(=O)N[C@@H](Cc1c[nH]c2ccccc12)C(=O)N1CCC[C@H]1C(=O)N[C@@H](Cc1c[nH]c2ccccc12)C(=O)N[C@@H](CCCNC(=N)N)C(=O)N[C@@H](CCCNC(=N)N)C(=O)N[C@@H](CCCCN)C(N)=O [Omiganan, reference compound] (H-ILRWPWWPWRRK-NH2) , what is its reported HC50?
Reply | > 100 µM

---

Some compounds, each annotated with its measured HC50.
# System: rat erythrocytes
# procedure text: Hemolysis assay
# Type: cell-based
# setup conditions: pH 7.4
Just the number please, in µM, no unit attached.

Field: example entries. Status: answers known.
chemical structure	measurement name	measured result
C[C@@H](c1ccccc1)N(CC(N)=O)C(=O)CN(C(=O)CN(CCCCN)C(=O)CN(CCc1c[nH]c2ccccc12)C(=O)CN(CCc1c[nH]c2ccccc12)C(=O)CN(CCCCN)C(=O)CN(CCc1c[nH]c2ccccc12)C(=O)CN(CCc1c[nH]c2ccccc12)C(=O)CN(CCCCN)C(=O)CN(C(=O)CN(C(=O)CNCCCCN)[C@@H](C)c1ccccc1)[C@@H](C)c1ccccc1)[C@@H](C)c1ccccc1	HC50	33.9
C[C@@H](c1ccccc1)N(CC(N)=O)C(=O)CN(C(=O)CN(CCCCN)C(=O)CN(C(=O)CN(C(=O)CN(CCCCN)C(=O)CN(CCc1c[nH]c2ccccc12)C(=O)CN(C(=O)CN(CCCCN)C(=O)CN(C(=O)CN(C(=O)CNCCCCN)[C@@H](C)c1ccccc1)[C@@H](C)c1ccccc1)[C@@H](C)c1ccccc1)[C@@H](C)c1ccccc1)[C@@H](C)c1ccccc1)[C@@H](C)c1ccccc1	HC50	31.9

Ask | Form field - read-out: HC50; system: rat erythrocytes; submitted item: `C[C@@H](c1ccccc1)N(CC(N)=O)C(=O)CN(C(=O)CN(CCCCN)C(=O)CN(C(=O)CN(C(=O)CN(CCCCN)C(=O)CN(CCc1c[nH]c2ccccc12)C(=O)CN(CCc1c[nH]c2ccccc12)C(=O)CN(CCCCN)C(=O)CN(C(=O)CN(C(=O)CNCCCCN)[C@@H](C)c1ccccc1)[C@@H](C)c1ccccc1)[C@@H](C)c1ccccc1)[C@@H](C)c1ccccc1)[C@@H](C)c1ccccc1`
Reply | 41.3

---

# Test system: rat erythrocytes
# procedure text: Hemolysis assay
# Format: cell-based
# setup conditions: pH 7.4
Square brackets hold non-standard residues; d marks the D form. Peptide text beside a SMILES is read from it. Gly(N(CH2)2(3-indolyl)) = O=C(O)CNCCc1c[nH]c2ccccc12; Nspe = C[C@H](NCC(=O)O)c1ccccc1; Nphe = O=C(O)CNCc1ccccc1; Nlys = NCCCCNCC(=O)O
measurement name: HC10 (µM)
Just the number please, in µM, no unit attached.

Field: example entries. Status: answers known.
molecule	HC10 (µM)
C[C@@H](c1ccccc1)N(CC(N)=O)C(=O)CN(C(=O)CN(CCCCN)C(=O)CN(CCc1c[nH]c2ccccc12)C(=O)CN(C(=O)CN(CCCCN)C(=O)CN(C(=O)CN(C(=O)CN(CCCCN)C(=O)CN(C(=O)CN(C(=O)CNCCCCN)[C@@H](C)c1ccccc1)[C@@H](C)c1ccccc1)[C@@H](C)c1ccccc1)[C@@H](C)c1ccccc1)[C@@H](C)c1ccccc1)[C@@H](C)c1ccccc1 [peptoid 8]	12.8
C[C@@H](c1ccccc1)N(CC(=O)N(CCCCN)CC(=O)N(CC(=O)N(CC(=O)N(CCCCN)CC(=O)N(CCCCN)CC(=O)N(CC(=O)N(CCCCN)CC(=O)N(CCc1c[nH]c2ccccc12)CC(=O)N(CCc1c[nH]c2ccccc12)CC(N)=O)Cc1ccccc1)[C@@H](C)c1ccccc1)[C@@H](C)c1ccccc1)C(=O)CN(C(=O)CNCCCCN)[C@@H](C)c1ccccc1 [peptoid 39] (H-[Nlys][Nspe][Nspe][Nlys][Nspe][Nspe][Nlys][Nlys][Nphe][Nlys][Gly(N(CH2)2(3-indolyl))][Gly(N(CH2)2(3-indolyl))]-NH2)	100

Ask | For C[C@@H](c1ccccc1)N(CC(N)=O)C(=O)CN(C(=O)CN(CCCCN)C(=O)CN(C(=O)CN(C(=O)CN(CCCCN)C(=O)CN(C(=O)CN(C(=O)CN(CCCCN)C(=O)CN(C(=O)CN(CCCCN)C(=O)CN(CCCCN)C(=O)CN(CCc1c[nH]c2ccccc12)C(=O)CNCCc1c[nH]c2ccccc12)[C@@H](C)c1ccccc1)[C@@H](C)c1ccccc1)[C@@H](C)c1ccccc1)[C@@H](C)c1ccccc1)[C@@H](C)c1ccccc1)[C@@H](C)c1ccccc1 [peptoid 36] , what is its reported HC10?
Reply | 15.3

# credit: paper PMC10460844
